# subjectOfTest: human TAS2R4 (Homo sapiens)
# Construct: expressed in transfected cells; host or cells: HEK293T-Gα16gust44
# Sequence (Q9NYW5 whole entry): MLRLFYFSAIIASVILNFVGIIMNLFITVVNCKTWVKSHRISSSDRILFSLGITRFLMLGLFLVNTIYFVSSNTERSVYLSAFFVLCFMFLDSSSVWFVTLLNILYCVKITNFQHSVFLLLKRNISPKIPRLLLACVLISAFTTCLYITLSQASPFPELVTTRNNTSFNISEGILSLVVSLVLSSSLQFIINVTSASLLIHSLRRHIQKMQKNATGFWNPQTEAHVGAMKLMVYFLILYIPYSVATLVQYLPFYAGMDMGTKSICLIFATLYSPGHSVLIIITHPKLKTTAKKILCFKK
# experimentalDetails: Calcium imaging assay (FLIPR), HEK293T-Gα16gust44 cells transfected with human TAS2R4; further: test concentration or dose not given here
# Format: cell-based
# assayContext: Time (s) 299.547
quantity: RLU, fluorescence trace (RLU)

[[record]]
compound = "C[C@H](CCC(=O)NCCS(=O)(=O)O)[C@H]1CC[C@H]2[C@@H]3[C@H](O)C[C@@H]4C[C@H](O)CC[C@]4(C)[C@H]3C[C@H](O)[C@]12C [Taurocholic Acid, taurocholic acid]"
subjectoftest = "human TAS2R4 (Homo sapiens)"
measvalue = 175.107

[[record]]
compound = "C[C@H](CCC(=O)NCCS(=O)(=O)O)[C@H]1CC[C@H]2[C@@H]3CC[C@@H]4C[C@H](O)CC[C@]4(C)[C@H]3CC[C@]12C [Taurolithocholic Acid, taurolithocholic acid]"
subjectoftest = "human TAS2R4 (Homo sapiens)"
measvalue = 118.82

[[record]]
compound = "C[C@H](CCC(=O)O)[C@H]1CC[C@H]2[C@@H]3CC[C@@H]4C[C@H](O)CC[C@]4(C)[C@H]3C[C@H](O)[C@]12C [Deoxycholic Acid, deoxycholic acid]"
subjectoftest = "human TAS2R4 (Homo sapiens)"
measvalue = 406.435

[[record]]
compound = "C[C@H](CCC(=O)O)[C@H]1CC[C@H]2[C@@H]3[C@H](O)C[C@@H]4C[C@H](O)CC[C@]4(C)[C@H]3C[C@H](O)[C@]12C [Cholic Acid, cholic acid]"
subjectoftest = "human TAS2R4 (Homo sapiens)"
measvalue = 250.874

[[record]]
compound = "C[C@H](CCC(=O)O)[C@H]1CC[C@H]2[C@@H]3[C@@H](O)C[C@@H]4C[C@H](O)CC[C@]4(C)[C@H]3CC[C@]12C [Ursodeoxycholic Acid, ursodeoxycholic acid]"
subjectoftest = "human TAS2R4 (Homo sapiens)"
measvalue = 130.446

[[record]]
compound = "C[C@H](CCC(=O)NCC(=O)O)[C@H]1CC[C@H]2[C@@H]3[C@H](O)C[C@@H]4C[C@H](O)CC[C@]4(C)[C@H]3C[C@H](O)[C@]12C [Glycocholic Acid, glycocholic acid]"
subjectoftest = "human TAS2R4 (Homo sapiens)"
measvalue = 134.948

